Recorded pEC50 values for a group of molecules are listed next.
# Target desc: hGLP-1R (Homo sapiens)
# Assay explanation: hGLP-1R agonist cAMP stimulation assay
# Conditions used: Flp-In-293-GLP1R cells, 30 minutes at 37° C.
pEC50: −log10 of the molar value.
Assay readout: pEC50

Molecule	Assay readout	Recorded value
Cc1cc(-n2nc3c(c2-n2ccn(-c4ccc5c(c4F)CS(=O)(=O)N5)c2=O)[C@H](C)N(C(=O)c2cc4cc(C5CCOCC5)ccc4n2[C@@]2(c4noc(=O)[nH]4)C[C@@H]2C)CC3)cc(C)c1F	pEC50	10.22
Cc1cc(-n2nc3c(c2-n2ccn(-c4ccc5c(cnn5C5CC5)c4F)c2=O)[C@H](C)N(C(=O)c2cc4cc([C@H]5CCOC(C)(C)C5)ccc4n2[C@@]2(c4noc(=O)[nH]4)C[C@@H]2C)CC3)cc(C)c1F	pEC50	10.03
Cc1cc(-n2nc3c(c2-n2ccn(-c4ccc5c(cnn5C5CCC5)c4F)c2=O)[C@H](C)N(C(=O)c2cc4cc(C5CCOCC5)ccc4n2[C@@]2(c4noc(=O)[nH]4)C[C@@H]2C)CC3)cc(C)c1F	pEC50	10.74
Cc1cc(-n2nc3c(c2-n2ccn(-c4ccc5c(c4)CCC(=O)N5C)c2=O)[C@H](C)N(C(=O)c2cc4cc(C5CCOCC5)ccc4n2[C@@]2(c4noc(=O)[nH]4)C[C@@H]2C)CC3)cc(C)c1F	pEC50	10.92
Cc1cc(-n2nc3c(c2-n2ccn(-c4ccc(CP(C)(C)=O)cc4)c2=O)[C@H](C)N(C(=O)c2cc4cc(C5CCOCC5)ccc4n2[C@@]2(c4noc(=O)[nH]4)C[C@@H]2C)CC3)cc(C)c1F	pEC50	10.55
Cc1cc(-n2nc3c(c2-n2ccn(-c4ccc5c(cnn5CC5CC5)c4F)c2=O)[C@H](C)N(C(=O)c2cc4cc(C5CCOC(C)(C)C5)ccc4n2[C@@]2(c4noc(=O)[nH]4)C[C@@H]2C)CC3)cc(C)c1F (stereo partly drawn)	pEC50	9.64
Cc1cc(-n2nc3c(c2-n2ccn(-c4ccc(NS(C)(=O)=O)cc4)c2=O)C2CCC(C3)N2C(=O)c2cc3nc(C4CCOCC4)ccc3n2[C@@]2(c3noc(=O)[nH]3)C[C@@H]2C)cc(C)c1F (stereo partly drawn)	pEC50	9.06
Cc1cc(-n2nc3c(c2-n2ccn(-c4ccc(CP5(=O)CCCC5)cc4)c2=O)[C@H](C)N(C(=O)c2cc4cc(C5CCOCC5)ccc4n2[C@@]2(c4noc(=O)[nH]4)C[C@@H]2C)CC3)cc(C)c1F	pEC50	10.96
Cc1cc(-n2nc3c(c2-n2ccn(-c4ccc5c(cnn5CC5CC5)c4F)c2=O)[C@H](C)N(C(=O)c2cc4cc(C5CCOCC5)ccc4n2[C@@]2(c4noc(=O)[nH]4)C[C@@H]2C)CC3)cc(C)c1F	pEC50	10.36

----------
# Assay explanation: Single-dose oral administration pharmacokinetic study in SD rats
# Format: in vivo
# Conditions used: Sprague-Dawley, rat, whole blood, 5 mg/kg
Assay readout: Cmax (ng/mL)

Compound	Assay readout	Recorded value
Cc1cc(-n2nc3c(c2-n2ccn(-c4ccc5c(cnn5C5CCC5)c4F)c2=O)[C@H](C)N(C(=O)c2cc4cc(C5CCOCC5)ccc4n2[C@@]2(c4noc(=O)[nH]4)C[C@@H]2C)CC3)cc(C)c1F	Cmax	1900
Cc1cc(-n2nc3c(c2-n2ccn(-c4ccc5c(cnn5C5CC5)c4F)c2=O)[C@H](C)N(C(=O)c2cc4nc(C5CCOCC5)ccc4n2[C@@]2(c4noc(=O)[nH]4)C[C@@H]2C)CC3)cc(C)c1F [Compound 65]	Cmax	11000
Cc1cc(-n2nc3c(c2-n2ccn(-c4ccc5c(cnn5C5CC5)c4F)c2=O)[C@H](C)N(C(=O)c2cc4nc(C5CCOCC5)ccc4n2[C@@]2(c4noc(=O)[nH]4)C[C@@H]2C)CC3)cc(C)c1F (single isomer, unassigned) [Compound 19]	Cmax	4460
Cc1cc(-n2nc3c(c2-n2ccn(-c4ccc5c(cnn5C)c4F)c2=O)[C@H](C)N(C(=O)c2cc4cc([C@H]5CCOC(C)(C)C5)ccc4n2[C@@]2(c4noc(=O)[nH]4)C[C@@H]2C)CC3)cc(C)c1F [Orforglipron, orforglipron, reference compound]	Cmax	799

----------
Recorded AUC(0-t) values for a group of molecules are listed next.
# Assay explanation: Single-dose subcutaneous injection pharmacokinetic study in SD rats
# Type: in vivo
# Conditions used: Sprague-Dawley, rat, blood, sc, male SD rats, 30 mg/kg, vehicle 80% MCT + 20% benzyl alcohol, read-out: AUC0-696h

Molecule	Unit name	AUC(0-t)
Cc1cc(-n2nc3c(c2-n2ccn(-c4ccc5c(cnn5CC5CC5)c4F)c2=O)[C@H](C)N(C(=O)c2cc4cc(C5CCOC(C)(C)C5)ccc4n2[C@@]2(c4noc(=O)[nH]4)C[C@@H]2C)CC3)cc(C)c1F (some centres unmarked)	ng·h/mL	23400
Cc1cc(-n2nc3c(c2-n2ccn(-c4ccc5c(cnn5C5CCC5)c4F)c2=O)[C@H](C)N(C(=O)c2cc4cc(C5CCOCC5)ccc4n2[C@@]2(c4noc(=O)[nH]4)C[C@@H]2C)CC3)cc(C)c1F	ng·h/mL	77700

----------
# Assay explanation: Single-dose subcutaneous injection pharmacokinetic study in SD rats
# Assay type: in vivo
# Conditions used: Sprague-Dawley, rat, blood, sc, male SD rats, 30 mg/kg, vehicle 80% MCT + 20% benzyl alcohol, read-out: AUC0-696h

Molecule	AUC(0-t) (ng·h/mL)
Cc1cc(-n2nc3c(c2-n2ccn(-c4ccc5c(cnn5C)c4F)c2=O)[C@H](C)N(C(=O)c2cc4cc([C@H]5CCOC(C)(C)C5)ccc4n2[C@@]2(c4noc(=O)[nH]4)C[C@@H]2C)CC3)cc(C)c1F [Orforglipron, orforglipron, reference compound]	5390
Cc1cc(-n2nc3c(c2-n2ccn(-c4ccc5c(cnn5C5CC5)c4F)c2=O)[C@H](C)N(C(=O)c2cc4nc(C5CCOCC5)ccc4n2[C@@]2(c4noc(=O)[nH]4)C[C@@H]2C)CC3)cc(C)c1F (single isomer, unassigned)	234000
Cc1cc(-n2nc3c(c2-n2ccn(-c4ccc5c(cnn5CC5CC5)c4F)c2=O)[C@H](C)N(C(=O)c2cc4cc(C5CCOCC5)ccc4n2[C@@]2(c4noc(=O)[nH]4)C[C@@H]2C)CC3)cc(C)c1F	61500

----------
# Target desc: hGLP-1R (Homo sapiens, UniProt P43220)
# Sequence (P43220 24-463): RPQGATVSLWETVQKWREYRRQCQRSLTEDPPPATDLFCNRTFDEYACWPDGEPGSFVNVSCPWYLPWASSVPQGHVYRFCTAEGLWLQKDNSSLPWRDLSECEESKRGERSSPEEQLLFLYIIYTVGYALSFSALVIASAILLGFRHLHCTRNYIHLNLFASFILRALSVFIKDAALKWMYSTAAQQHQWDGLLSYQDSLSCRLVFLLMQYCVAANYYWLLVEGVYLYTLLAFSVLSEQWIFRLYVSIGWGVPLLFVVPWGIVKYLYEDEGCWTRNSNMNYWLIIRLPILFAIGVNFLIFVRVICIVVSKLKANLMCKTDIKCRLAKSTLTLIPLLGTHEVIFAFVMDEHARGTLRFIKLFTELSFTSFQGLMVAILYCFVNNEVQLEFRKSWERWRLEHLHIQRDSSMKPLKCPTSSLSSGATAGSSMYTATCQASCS
# Assay explanation: hGLP-1R agonist cAMP stimulation assay
# Conditions used: Flp-In-293-GLP1R cells, 30 minutes at 37° C.
# Method: 1. Cell Line and Reagent Preparation • 1) Cell line: Flp-In-293-GLP1R • 2) Medium: DMEM+10% FBS+1×Penicillin-Streptomycin+200 μg/mL HB • 3) Test buffer: 1×HBSS+20 mM HEPES+0.1% BSA+500 μM IBMX 2. […]
Criterion: EC50 strictly less than 0.04 nM. Met: Criterion met. Not met: Criterion not met.

Compound string	Class label
Cc1cc(-n2nc3c(c2-n2ccn(-c4ccc5c(c4)oc(=O)n5C)c2=O)[C@H](C)N(C(=O)c2cc4cc(C5CCOCC5)ccc4n2[C@@]2(c4noc(=O)[nH]4)C[C@@H]2C)CC3)cc(C)c1F	Criterion met
Cc1cc(-n2nc3c(c2-n2ccn(-c4ccc5c(cnn5C5CC5)c4F)c2=O)[C@H](C)N(C(=O)c2cc4cc(C5CCOCC5)cnc4n2[C@@]2(c4noc(=O)[nH]4)C[C@@H]2C)CC3)cc(C)c1F	Criterion not met
Cc1cc(-n2nc3c(c2-n2ccn(-c4ccc5c(c4F)CCS(=O)(=O)N5C)c2=O)[C@H](C)N(C(=O)c2cc4cc(C5CCOCC5)ccc4n2[C@@]2(c4noc(=O)[nH]4)C[C@@H]2C)CC3)cc(C)c1F	Criterion met
Cc1cc(-n2nc3c(c2-n2ccn(-c4ccc5c(c4F)COB5O)c2=O)[C@H](C)N(C(=O)c2cc4cc(C5CCOCC5)ccc4n2[C@@]2(c4noc(=O)[nH]4)C[C@@H]2C)CC3)cc(C)c1F	Criterion not met
Cc1cc(-n2nc3c(c2-n2ccn(-c4ccc(CP(=O)(C5CC5)C5CC5)cc4)c2=O)[C@H](C)N(C(=O)c2cc4cc(C5CCOCC5)ccc4n2[C@@]2(c4noc(=O)[nH]4)C[C@@H]2C)CC3)cc(C)c1F	Criterion not met

----------
# Target desc: hGLP-1R (Homo sapiens, UniProt P43220)
# Assay explanation: hGLP-1R agonist cAMP stimulation assay
# Conditions used: Flp-In-293-GLP1R cells, 30 minutes at 37° C.
pEC50: −log10 of the molar value.

Compound	Target desc	pEC50
Cc1cc(-n2nc3c(c2-n2ccn(-c4ccc5c(cnn5C5CC5)c4F)c2=O)[C@H](C)N(C(=O)c2cc4nc(C5CCOCC5)ccc4n2[C@@]2(c4noc(=O)[nH]4)C[C@@H]2C)CC3)cc(C)c1F [Compound 65]	hGLP-1R (Homo sapiens, UniProt P43220)	10.04
Cc1cc(-n2nc3c(c2-n2ccn(-c4ccc5c(c4)CS(=O)(=O)N5C)c2=O)[C@H](C)N(C(=O)c2cc4cc(C5CCOCC5)ccc4n2[C@@]2(c4noc(=O)[nH]4)C[C@@H]2C)CC3)cc(C)c1F	hGLP-1R (Homo sapiens, UniProt P43220)	10.72
CCOP(=O)(Cc1ccc(-n2ccn(-c3c4c(nn3-c3cc(C)c(F)c(C)c3)CCN(C(=O)c3cc5cc(C6CCOCC6)ccc5n3[C@@]3(c5noc(=O)[nH]5)C[C@@H]3C)[C@H]4C)c2=O)cc1)OCC	hGLP-1R (Homo sapiens, UniProt P43220)	10.10
Cc1cc(-n2nc3c(c2-n2ccn(-c4ccc5c(c4F)COB5O)c2=O)[C@H](C)N(C(=O)c2cc4cc(C5CCOC(C)(C)C5)ccc4n2[C@@]2(c4noc(=O)[nH]4)C[C@@H]2C)CC3)cc(C)c1F (some centres unmarked)	hGLP-1R (Homo sapiens, UniProt P43220)	10.20
Cc1cc(-n2nc3c(c2-n2ccn(-c4ccc5c(c4F)CCS(=O)(=O)N5)c2=O)[C@H](C)N(C(=O)c2cc4cc(C5CCOCC5)ccc4n2[C@@]2(c4noc(=O)[nH]4)C[C@@H]2C)CC3)cc(C)c1F	hGLP-1R (Homo sapiens, UniProt P43220)	10.30
